Where do the numbers come from? From the supplement of paper PMC10567573.

B1: ZNF449 (parent)
chain: QLTGHQRIHSGEEPHKCPECGKRF

- Variants of: B1
- assay.notes: protein stability index of a GFP-peptide fusion (GPS, HEK-293T) (PSI 1-6); higher = more stable;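 also: lentivirally expressed fusions sorted by FACS into six bins by GFP to DsRed ratio, PSI derived from sequencing read proportions per bin multiplied by bin number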
- details: c terminus: a fixed tail appended
observation.type: protein stability index
Answer using only a numeral; do not append any unit.

// query // protein stability index lookup, key: G21V
// result 4.49

// query // protein stability index lookup, key: S10F
// result 4.12

// query // protein stability index lookup, key: T3C
// result 4.82

// query // protein stability index lookup, key: C20I
// result 4.36

// query // protein stability index lookup, key: S10I
// result 3.6

// query // protein stability index lookup, key: G21S
// result 4.32

// query // protein stability index lookup, key: G4H
// result 3.94

// query // protein stability index lookup, key: K16H
// result 5

// query // protein stability index lookup, key: R23T
// result 4.52

// query // protein stability index lookup, key: T3E
// result 4.59

// query // protein stability index lookup, key: R23E
// result 5.37

// query // protein stability index lookup, key: P14L
// result 3.7

// query // protein stability index lookup, key: Q1F
// result 2.09

// query // protein stability index lookup, key: Q1W
// result 2.03

// query // protein stability index lookup, key: C17M
// result 4.72

// query // protein stability index lookup, key: G11I
// result 3.52

// query // protein stability index lookup, key: C17G
// result 3.56

// query // protein stability index lookup, key: G11Q
// result 4.01

// query // protein stability index lookup, key: L2N
// result 4.59

// query // protein stability index lookup, key: Q6V
// result 3.27

// query // protein stability index lookup, key: L2R
// result 4.33

// query // protein stability index lookup, key: Q6Y
// result 3.97

// query // protein stability index lookup, key: P14M
// result 4.05

// query // protein stability index lookup, key: C17S
// result 4.43

// query // protein stability index lookup, key: T3P
// result 4.61

// query // protein stability index lookup, key: R23N
// result 3.95

// query // protein stability index lookup, key: F24G
// result 4.7

// query // protein stability index lookup, key: K22V
// result 4.51

// query // protein stability index lookup, key: H15V
// result 2.18

// query // protein stability index lookup, key: H5P
// result 4.48

// query // protein stability index lookup, key: H5I
// result 4.18

// query // protein stability index lookup, key: R23S
// result 4.83

// query // protein stability index lookup, key: H15F
// result 4.22
